test system: SYO-1; assay: standardised AUC of viability dose-response curve (72 h) (fraction (0-1)); higher = less growth inhibition (more resistant)
Lab note: compare standardised AUC against 0.9. Equal or greater, write condition met. Smaller, write condition not met.

Field: example entries. Status: answers known.
[[record]]
molecule = "Cc1nc(NC(=O)N2CCC[C@H]2C(N)=O)sc1-c1ccnc(C(C)(C)C(F)(F)F)c1"
answer_label = "condition not met"

[[record]]
molecule = "Cc1nc(-c2cn3c(n2)-c2ccc(-c4cnn(C(C)(C)C(N)=O)c4)cc2OCC3)n(C(C)C)n1"
answer_label = "condition not met"

[[record]]
molecule = "CNC(=O)c1ccc(-c2cnc3ncc(Cc4ccc5ncccc5c4)n3n2)cc1F"
answer_label = "condition met"


# evaluate next
Request: Is standardised AUC for CC(C)NC(=O)C1CCC(n2c(NC(=O)c3ccc(F)cc3)nc3ccc(CN4CCC(C(C)(C)O)CC4)cc32)CC1 (stereo unspecified) at or above 0.9?
Result: condition not met
